protocol_details: Plasma pharmacokinetics of raltitrexed (radioimmunoassay)
Type: in vivo
stated_conditions: human, intravenous, dose level V (irinotecan 350, raltitrexed 2.6 mg m-2), cycle 1, n=3, read-out: Raltitrexed Vss

smi | Vd / L
Cc1nc2ccc(CN(C)c3ccc(C(=O)N[C@@H](CCC(=O)O)C(=O)O)s3)cc2c(=O)[nH]1 | 30.2

----------
protocol_details: Plasma pharmacokinetics of irinotecan and SN-38 (reversed-phase HPLC)
stated_conditions: human, plasma, intravenous, Irinotecan AUC, dose level IV (irinotecan 300, raltitrexed 2.6 mg m-2); cycle 1; n=3
Where a name gives a salt, the structure may show the parent alone.

compound | readout_unit | AUC
CCc1c2c(nc3ccc(OC(=O)N4CCC(N5CCCCC5)CC4)cc13)-c1cc3c(c(=O)n1C2)COC(=O)[C@]3(O)CC [irinotecan, Irinotecan hydrochloride] | ng·h/mL | 22600

----------
protocol_details: Plasma pharmacokinetics of raltitrexed (radioimmunoassay)
Type: in vivo
stated_conditions: human, intravenous, dose level I (irinotecan 175, raltitrexed 2.6 mg m-2), cycle 1, n=3, read-out: Raltitrexed t1/2 terminal (converted)

smi | readout_unit | half-life
Cc1nc2ccc(CN(C)c3ccc(C(=O)N[C@@H](CCC(=O)O)C(=O)O)s3)cc2c(=O)[nH]1 | h | 222

----------
protocol_details: Plasma pharmacokinetics of raltitrexed (radioimmunoassay)
Type: in vivo
stated_conditions: human, intravenous, dose level V (irinotecan 350, raltitrexed 2.6 mg m-2), cycle 1, n=3
value_kind: Cmax (ng/mL)

smi | value_kind | readout_unit | recorded_value
Cc1nc2ccc(CN(C)c3ccc(C(=O)N[C@@H](CCC(=O)O)C(=O)O)s3)cc2c(=O)[nH]1 | Cmax | ng/mL | 736

----------
protocol_details: Plasma pharmacokinetics of irinotecan and SN-38 (reversed-phase HPLC)
stated_conditions: human, plasma, iv, Irinotecan Cmax, dose level IV (irinotecan 300, raltitrexed 2.6 mg m-2); cycle 1; n=3; estimated at the end of i.v. infusion
Where a name gives a salt, the structure may show the parent alone.

compound | Cmax
CCc1c2c(nc3ccc(OC(=O)N4CCC(N5CCCCC5)CC4)cc13)-c1cc3c(c(=O)n1C2)COC(=O)[C@]3(O)CC [irinotecan, Irinotecan hydrochloride] | 5980 ng/mL

----------
protocol_details: Plasma pharmacokinetics of irinotecan and SN-38 (reversed-phase HPLC)
stated_conditions: human, plasma, iv, Irinotecan Cmax, dose level VI (irinotecan 350, raltitrexed 3.0 mg m-2); cycle 1; n=6; estimated at the end of i.v. infusion
Where a name gives a salt, the structure may show the parent alone.
value_kind: Cmax (ng/mL)

compound | recorded_value
CCc1c2c(nc3ccc(OC(=O)N4CCC(N5CCCCC5)CC4)cc13)-c1cc3c(c(=O)n1C2)COC(=O)[C@]3(O)CC [irinotecan, Irinotecan hydrochloride] | 5430

----------
protocol_details: Plasma pharmacokinetics of raltitrexed (radioimmunoassay)
Type: in vivo
stated_conditions: human, intravenous, dose level I (irinotecan 175, raltitrexed 2.6 mg m-2), cycle 1, n=3
Protocol: […]. […] […]. […] 261 courses were administered. […] Two others had lethargy caused by disease progression. There was no first-cycle neutropenia. […] […]; 6/30 patients (20%) had objective responses. This combination is active with manageable toxicity. […] Other radiological investi- gations were carried out if indicated. […] […]. […] Pharmacokinetic analysis was performed using WinNonlin software. […] […]. Patients were seen weekly while on treatment. […] […]. […] All the other patients were evaluable for toxicity. […]

smi | Cmax / ng/mL
Cc1nc2ccc(CN(C)c3ccc(C(=O)N[C@@H](CCC(=O)O)C(=O)O)s3)cc2c(=O)[nH]1 | 561
